- Experimental system: Cellular tumor antigen p53 (Homo sapiens)
- Assay summary: TOX21_p53_BLA_p3_ratio: Tox21 HCT-116 p53 Agonism Beta-lactamase Assay, Ratio, Phase 3 (AID 2283596)
Results filed as inconclusive are left out. Activity calls are given as the source filed them. How the source made its calls: active means hit-call score of the fitted dose curve at least 0.9, where 1 is the maximum; inconclusive means response in the unintended direction; inactive means score below 0.9.
// allowed return values: yes (1) (active), no (0) (inactive)

Enquiry: So what was the verdict on C=CCSSSCC=C in this test?
Return: yes (1)

Enquiry: So what was the verdict on CCCCCC/C=C/C(=O)OC in this test?
Return: no (0)

Enquiry: So what was the verdict on CCCCCCCCCCCCCCCCI in this test?
Return: no (0)

Enquiry: So what was the verdict on CCCCc1ccc2nc(NC(=O)OC)[nH]c2c1 in this test?
Return: yes (1)

Enquiry: So what was the verdict on O=C(c1ccc(O)cc1)c1ccc(O)cc1 in this test?
Return: no (0)

Enquiry: So what was the verdict on O=C(O)Cc1csc(-c2ccc(Cl)cc2)n1 in this test?
Return: no (0)

Enquiry: So what was the verdict on CC(C)(O/N=C(\C(=O)N[C@@H]1C(=O)N2C(C(=O)[O-])=C(C[n+]3ccccc3)CS[C@H]12)c1csc(N)n1)C(=O)O in this test?
Return: no (0)

Enquiry: So what was the verdict on C=CC[N@@+]12CC[C@@]34c5ccccc5N5/C=C6/[C@H]7C[C@H]8[C@@]9(CC[N@@+]8(CC=C)C/C7=C/CO)c7ccccc7N(/C=C(/[C@@H](C[C@@H]31)/C(=C\CO)C2)[C@H]54)[C@@H]69 in this test?
Return: no (0)

Enquiry: So what was the verdict on O=C1C(CCS(=O)c2ccccc2)C(=O)N(c2ccccc2)N1c1ccccc1 (stereo not drawn) in this test?
Return: no (0)

Enquiry: So what was the verdict on CCOC(=O)c1ccc(OC(=O)CCCCCN=C(N)N)cc1 in this test?
Return: no (0)

Enquiry: So what was the verdict on NC(=O)N1c2ccccc2CC(=O)c2ccccc21 in this test?
Return: no (0)

Enquiry: So what was the verdict on CN(C)CCCNCCCN in this test?
Return: no (0)

Enquiry: So what was the verdict on ClC/C=C\CCl in this test?
Return: no (0)

Enquiry: So what was the verdict on CN1CCc2c(c3ccccc3n2Cc2ccccc2)C1 in this test?
Return: no (0)

Enquiry: So what was the verdict on NS(=O)(=O)c1ccccc1Cl in this test?
Return: no (0)

Enquiry: So what was the verdict on COc1ccc(CN(CCN(C)C)c2ncccn2)cc1 in this test?
Return: no (0)

Enquiry: So what was the verdict on CC#N in this test?
Return: no (0)

Enquiry: So what was the verdict on COC(=O)C(C)O (stereo not drawn) in this test?
Return: no (0)

Enquiry: So what was the verdict on CCN(C)C(=O)Oc1cccc([C@H](C)N(C)C)c1 in this test?
Return: no (0)

Enquiry: So what was the verdict on CC(=O)Oc1cc(C(C)C)c(OCCN(C)C)cc1C in this test?
Return: no (0)

Enquiry: So what was the verdict on CCC(C)(C)CC in this test?
Return: no (0)

Enquiry: So what was the verdict on CC(=O)OCC(=O)[C@@]1(O)CC[C@H]2[C@@H]3CCC4=CC(=O)CC[C@]4(C)C3=CC[C@@]21C in this test?
Return: no (0)

Enquiry: So what was the verdict on CC(=O)CC(=O)Nc1ccc(S(=O)(=O)O)cc1 in this test?
Return: no (0)

Enquiry: So what was the verdict on CS(=O)(=O)c1ccc([C@@H](O)[C@@H](COC(=O)CN)NC(=O)C(Cl)Cl)cc1 in this test?
Return: no (0)

Enquiry: So what was the verdict on Cc1ncsc1CCO in this test?
Return: no (0)

Enquiry: So what was the verdict on CC(Cc1cccc(C(F)(F)F)c1)NCCOC(=O)c1ccccc1 (stereo not drawn) in this test?
Return: no (0)

Enquiry: So what was the verdict on CNS(=O)(=O)Cc1ccc2[nH]cc(CCN(C)C)c2c1 in this test?
Return: no (0)

Enquiry: So what was the verdict on Cc1ccc(C(=O)c2ccc(CC(=O)O)n2C)cc1 in this test?
Return: no (0)

Enquiry: So what was the verdict on CCC(CO)(CO)CO in this test?
Return: no (0)

Enquiry: So what was the verdict on O=C1CCCc2c1cc1ccc3cccc4ccc2c1c34 in this test?
Return: yes (1)

Enquiry: So what was the verdict on O=C(c1ccc(F)cc1)C1CCN(CCn2c(=S)[nH]c3ccccc3c2=O)CC1 in this test?
Return: no (0)

Enquiry: So what was the verdict on NC1CCN(c2nc3c(cc2F)c(=O)c(C(=O)O)cn3-c2ccc(F)cc2F)C1 (stereo not drawn) in this test?
Return: no (0)

Enquiry: So what was the verdict on COc1ccc(CCC(=O)c2c(O)cc(O[C@@H]3O[C@H](CO)[C@@H](O)[C@H](O)[C@H]3O[C@@H]3O[C@@H](C)[C@H](O)[C@@H](O)[C@H]3O)cc2O)cc1O in this test?
Return: no (0)

Enquiry: So what was the verdict on CC1=NN(c2ccc(C(=O)O)cc2)C(=O)C1 in this test?
Return: no (0)

Enquiry: So what was the verdict on CC(=O)OCC[N+](C)(C)C in this test?
Return: no (0)

Enquiry: So what was the verdict on CN(C)CCCOc1nn(Cc2ccccc2)c2ccccc12 in this test?
Return: no (0)

Enquiry: So what was the verdict on NCCCC(O)(P(=O)(O)O)P(=O)(O)O in this test?
Return: no (0)

Enquiry: So what was the verdict on CC1CCCCN1CCCOC(=O)c1ccccc1 (stereo not drawn) in this test?
Return: no (0)

Enquiry: So what was the verdict on Cc1ccc(Cl)c(N)c1Cl in this test?
Return: no (0)

Enquiry: So what was the verdict on CCc1c(C)[nH]c2c1C(=O)C(CN1CCOCC1)CC2 (stereo not drawn) in this test?
Return: no (0)

Enquiry: So what was the verdict on O=C(O)c1ccc(NC(=O)[C@H](Cc2ccc(O)cc2)NC(=O)c2ccccc2)cc1 in this test?
Return: no (0)

Enquiry: So what was the verdict on NC(=O)CC[C@@H]1NC(=O)[C@H](Cc2ccccc2)NC(=O)[C@H](Cc2ccc(O)cc2)NC(=O)[C@@H](N)CSSC[C@@H](C(=O)N2CCC[C@H]2C(=O)N[C@@H](CCCN=C(N)N)C(=O)NCC(N)=O)NC(=O)[C@H](CC(N)=O)NC1=O in this test?
Return: no (0)

Enquiry: So what was the verdict on COc1ccc(NS(=O)(=O)c2ccc(N)cc2)nn1 in this test?
Return: no (0)

Enquiry: So what was the verdict on NC(=O)Cc1cccc2ccccc12 in this test?
Return: no (0)

Enquiry: So what was the verdict on NC(=O)OC[C@@H]1[C@H](NC(=O)/C(=N\OCC(=O)O)c2csc(N)n2)C(=O)N1S(=O)(=O)O in this test?
Return: no (0)

Enquiry: So what was the verdict on CCCOCC(C)OCC(C)O (stereo not drawn) in this test?
Return: no (0)

Enquiry: So what was the verdict on CC(C(=O)O)c1ccc2c(c1)Cc1cccnc1O2 (stereo not drawn) in this test?
Return: no (0)

Enquiry: So what was the verdict on CCC=O in this test?
Return: no (0)

---

- Assay summary: CCTE_Shafer_MEA_dev_spike_duration_mean: CCTE's Neural Network Formation Assay for Mean Spike Duration, Shafer Lab (AID 2284051);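 further: mean network spike duration pooled as area under curve over DIV 5 to 12 recordings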
- Experimental: CCTE_Shafer_MEA_dev assay is conducted using Axion Biosystems 48 well microelectrode array (MEA) plates and Maestro recording system. Each well of the MEA plate contains a grid of 16 microelectrodes embedded in the culture surface. Electrically active cells, such as neurons, can be cultured over the electrodes, and electrical activity in these cells can be recorded extracellularly. […]
Calls of active or inactive are those of the source. How the source made its calls: active means hit-call score of the fitted dose curve at least 0.9, where 1 is the maximum; inactive means score below 0.9.
// allowed return values: active, inactive

Enquiry: So what was the verdict on c1cc2c3c(c1)ccc1cccc(c13)C2 in this test?
Return: inactive

Enquiry: So what was the verdict on O=C1CC2(CCCC2)CC(=O)N1CCCCN1CCN(c2ncccn2)CC1 in this test?
Return: active

Enquiry: So what was the verdict on CCc1ccccc1 in this test?
Return: inactive

Enquiry: So what was the verdict on CC(=O)N[C@@H](CC(=O)O)C(=O)O in this test?
Return: inactive

Enquiry: So what was the verdict on Brc1cc(Br)c(Oc2cc(Br)c(Br)cc2Br)cc1Br in this test?
Return: inactive

Enquiry: So what was the verdict on C[C@@H]1CCO[C@H]2Cn3cc(C(=O)NCc4ccc(F)cc4F)c(=O)c(O)c3C(=O)N12 in this test?
Return: active

Enquiry: So what was the verdict on CCCCCC=C(C)C(CC)CCO (stereo unspecified) in this test?
Return: inactive

Enquiry: So what was the verdict on BrC1CC(Br)CC(Br)CC(Br)CC(Br)CC(Br)C1 (stereo unspecified) in this test?
Return: active

Enquiry: So what was the verdict on CC(C)O in this test?
Return: active

Enquiry: So what was the verdict on Cc1[nH]n(C)c(=O)c1C(=O)c1ccc(C(F)(F)F)cc1S(C)(=O)=O in this test?
Return: inactive

Enquiry: So what was the verdict on CCCCCC(C)(CC)C(=O)NC (stereo unspecified) in this test?
Return: active
